Study System: MAP kinase p38 (Homo sapiens, UniProt O15264+Q15759+Q16539+P53778)
Assay Summary: Inhibitory activity against Mitogen-activated protein kinase p38 (MAP kinase)
Type: protein assay
# binning rule on IC50: c1 (below 100 nM), c2 (100 nM to below 500 nM), c3 (500 nM or more)

{"Smiles Entry": "Clc1cc(Cl)cc(-c2[nH]c(-c3ccccc3)nc2-c2ccncc2)c1", "Label Class": "c2"}

Enquiry: Hi, small favor: classify COc1ccc(CNc2nccc(-c3[nH]c(-c4ccccc4)nc3-c3ccccc3)n2)cc1 by its IC50 when you get a moment.
Return: c1

Enquiry: What about this molecule? C[C@@H](Nc1nccc(-c2[nH]c(C3CCNCC3)nc2-c2cccc(C(F)(F)F)c2)n1)c1ccccc1
Return: c1

Enquiry: What about this molecule? COc1ccc(-c2nc(-c3ccccc3)[nH]c2-c2ccncc2)cc1
Return: c2

Enquiry: What about this molecule? Clc1ccccc1-c1nc(-c2ccccc2)[nH]c1-c1ccncc1
Return: c2

Enquiry: What about this molecule? COc1cccc(-c2[nH]c(-c3ccccc3)nc2-c2ccncc2)c1
Return: c3

Enquiry: What about this molecule? Clc1ccc(-c2[nH]c(-c3ccccc3)nc2-c2ccncc2)cc1Cl
Return: c1

Enquiry: What about this molecule? c1ccc(-c2ccc(-c3[nH]c(-c4ccccc4)nc3-c3ccncc3)cc2)cc1
Return: c3

Enquiry: What about this molecule? N#Cc1ccc(-c2[nH]c(-c3ccccc3)nc2-c2ccncc2)cc1
Return: c3

====

Reported IC50 values for a set of compounds
Study System: MAP kinase p38 (Homo sapiens, UniProt O15264+Q15759+Q16539+P53778)
Assay Summary: Inhibitory activity against Mitogen-activated protein kinase p38 (MAP kinase)
Assay type: protein assay
Give your result in nM as a bare value.

Please review the following examples before continuing.
{"Smiles Entry": "Fc1ccc(-c2[nH]c(C3CCNCC3)nc2-c2ccncc2)cc1", "Unit Symbol": "nM", "IC50": 9}
{"Smiles Entry": "Oc1cccc(-c2nc(-c3ccccc3)[nH]c2-c2ccncc2)c1", "Unit Symbol": "nM", "IC50": 140}
{"Smiles Entry": "CC(C)c1ccc(-c2[nH]c(-c3ccccc3)nc2-c2ccncc2)cc1", "Unit Symbol": "nM", "IC50": 2100}
{"Smiles Entry": "Clc1ccc(-c2nc(-c3ccccc3)[nH]c2-c2ccncc2)cc1", "Unit Symbol": "nM", "IC50": 48}
{"Smiles Entry": "c1ccc(-c2nc(-c3ccccc3)c(-c3ccncc3)[nH]2)cc1", "Unit Symbol": "nM", "IC50": 180}
{"Smiles Entry": "Nc1nccc(-c2[nH]c(-c3ccccc3)nc2-c2ccccc2)n1", "Unit Symbol": "nM", "IC50": 57}

Next:
Enquiry: Quick check: IC50 on MAP kinase p38 (Homo sapiens, UniProt O15264+Q15759+Q16539+P53778), item Oc1ccc(-c2[nH]c(-c3ccccc3)nc2-c2ccncc2)cc1 ?
Return: 1400

====

Reported IC50 values for a set of compounds
Study System: RAF proto-oncogene serine/threonine-protein kinase (Homo sapiens, UniProt P04049)
Sequence (P04049 whole entry): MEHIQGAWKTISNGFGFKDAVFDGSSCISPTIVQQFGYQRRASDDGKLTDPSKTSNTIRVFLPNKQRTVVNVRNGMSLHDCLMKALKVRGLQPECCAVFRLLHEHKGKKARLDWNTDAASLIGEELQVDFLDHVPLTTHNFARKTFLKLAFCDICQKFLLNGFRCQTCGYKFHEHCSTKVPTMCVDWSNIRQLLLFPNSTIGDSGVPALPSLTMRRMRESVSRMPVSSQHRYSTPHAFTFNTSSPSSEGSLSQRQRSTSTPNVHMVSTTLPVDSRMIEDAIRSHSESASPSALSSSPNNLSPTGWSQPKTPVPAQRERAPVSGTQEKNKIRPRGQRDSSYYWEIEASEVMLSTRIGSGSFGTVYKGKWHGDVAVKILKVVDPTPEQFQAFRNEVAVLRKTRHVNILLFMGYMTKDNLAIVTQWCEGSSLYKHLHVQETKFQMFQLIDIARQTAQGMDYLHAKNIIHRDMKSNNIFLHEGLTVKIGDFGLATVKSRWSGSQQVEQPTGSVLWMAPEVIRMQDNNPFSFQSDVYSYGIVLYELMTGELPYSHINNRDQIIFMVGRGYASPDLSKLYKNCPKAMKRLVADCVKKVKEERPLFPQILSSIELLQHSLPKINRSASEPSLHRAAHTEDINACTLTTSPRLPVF
Assay Summary: Inhibition of human c-Raf kinase
Give your result in nM as a bare value.

Please review the following examples before continuing.
{"Smiles Entry": "C[C@H](Nc1cc(-c2c(-c3cccc(C(F)(F)F)c3)nc(C3CCNCC3)n2C)ccn1)c1ccccc1", "Unit Symbol": "nM", "IC50": 810}
{"Smiles Entry": "C[C@H](Nc1nccc(-c2[nH]c(C3CCNCC3)nc2-c2cccc(C(F)(F)F)c2)n1)c1ccccc1", "Unit Symbol": "nM", "IC50": 3500}

Enquiry: If you can, please state the reported IC50 value of FC(F)(F)c1cccc(-c2nc(-c3ccccc3)[nH]c2-c2ccncc2)c1 .
Return: 2600

Enquiry: What about this compound? COC(=O)c1ccc(-c2[nH]c(-c3ccccc3)nc2-c2ccncc2)cc1
Return: 320

====

Study System: Mitogen-activated protein kinase 9 (Homo sapiens, UniProt P45984)
Sequence (P45984 whole entry): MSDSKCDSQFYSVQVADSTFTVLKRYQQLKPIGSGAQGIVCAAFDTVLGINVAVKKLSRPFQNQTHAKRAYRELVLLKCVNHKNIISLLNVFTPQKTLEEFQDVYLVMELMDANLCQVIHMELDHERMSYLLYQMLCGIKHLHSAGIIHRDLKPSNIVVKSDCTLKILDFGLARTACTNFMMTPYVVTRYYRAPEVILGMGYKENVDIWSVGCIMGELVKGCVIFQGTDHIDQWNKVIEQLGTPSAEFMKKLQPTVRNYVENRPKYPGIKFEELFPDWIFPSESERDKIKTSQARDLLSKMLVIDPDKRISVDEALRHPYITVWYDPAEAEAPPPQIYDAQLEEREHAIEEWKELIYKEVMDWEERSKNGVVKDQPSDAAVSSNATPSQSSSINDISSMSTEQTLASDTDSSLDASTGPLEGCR
Assay Summary: Inhibition of c-Jun N-terminal kinase 2-alpha 1
Measurement Kind: log10(IC50) (log10 of the value in nM)
Answers are given as log10 of IC50 in nM.

Please review the following examples before continuing.
{"Smiles Entry": "Fc1ccc(-c2nc[nH]c2-c2ccncc2)cc1", "Study System": "Mitogen-activated protein kinase 9 (Homo sapiens, UniProt P45984)", "log10(IC50)": 2.29}
{"Smiles Entry": "Fc1ccc(-c2[nH]c(C3CCNCC3)nc2-c2ccncc2)cc1", "Study System": "Mitogen-activated protein kinase 9 (Homo sapiens, UniProt P45984)", "log10(IC50)": 2.32}
{"Smiles Entry": "Nc1nccc(-c2[nH]c(-c3ccccc3)nc2-c2ccccc2)n1", "Study System": "Mitogen-activated protein kinase 9 (Homo sapiens, UniProt P45984)", "log10(IC50)": 2.26}
{"Smiles Entry": "CNc1nccc(-c2[nH]c(-c3ccccc3)nc2-c2ccccc2)n1", "Study System": "Mitogen-activated protein kinase 9 (Homo sapiens, UniProt P45984)", "log10(IC50)": 2.24}
{"Smiles Entry": "C[C@H](Nc1nccc(-c2[nH]c(C3CCNCC3)nc2-c2cccc(C(F)(F)F)c2)n1)c1ccccc1", "Study System": "Mitogen-activated protein kinase 9 (Homo sapiens, UniProt P45984)", "log10(IC50)": 3.24}
{"Smiles Entry": "C[C@@H](Nc1nccc(-c2[nH]c(C3CCNCC3)nc2-c2cccc(C(F)(F)F)c2)n1)c1ccccc1", "Study System": "Mitogen-activated protein kinase 9 (Homo sapiens, UniProt P45984)", "log10(IC50)": 2.47}

Enquiry: If you can, please state the reported log10(IC50) value of c1ccc(-c2nc(-c3ccccc3)c(-c3ccncc3)[nH]2)cc1 .
Return: 2.11

Enquiry: What about this compound? COc1ccc(CNc2nccc(-c3[nH]c(-c4ccccc4)nc3-c3ccccc3)n2)cc1
Return: 1.99

Enquiry: What about this compound? FC(F)(F)c1cccc(-c2nc(-c3ccccc3)[nH]c2-c2ccncc2)c1
Return: 2.96

Enquiry: What about this compound? Fc1ccc(-c2[nH]c(C3CCCCC3)nc2-c2ccncc2)cc1
Return: 1.46

====

Assay Summary: Bioavailability in rat
Format: ADME, organism-based
Measurement Context: in vivo
Measurement Kind: bioavailability (%)
Give your result in % as a bare value.

{"Smiles Entry": "C[C@H](Nc1nccc(-c2[nH]c(C3CCNCC3)nc2-c2cccc(C(F)(F)F)c2)n1)c1ccccc1", "bioavailability, %": 0}

Enquiry: If you can, please state the reported bioavailability value of C[C@H](Nc1nccc(-c2c(-c3cccc(C(F)(F)F)c3)nc(C3CCNCC3)n2C)n1)c1ccccc1 .
Return: 64

Enquiry: What about this compound? Nc1nccc(-c2[nH]c(C3CCNCC3)nc2-c2cccc(C(F)(F)F)c2)n1
Return: 0

Enquiry: What about this compound? C[C@H](Nc1cc(-c2c(-c3cccc(C(F)(F)F)c3)nc(C3CCNCC3)n2C)ccn1)c1ccccc1
Return: 85

====

Study System: Mitogen-activated protein kinase 9 (Homo sapiens)
Assay Summary: Inhibition of c-Jun N-terminal kinase 2-alpha 1
pIC50: −log10 of the molar value.
Returns one of TRUE or FALSE; TRUE when pIC50 is >= 6.

{"Molecule": "Nc1nccc(-c2[nH]c(C3CCNCC3)nc2-c2cccc(C(F)(F)F)c2)n1", "Label Class": "FALSE"}

Please examine the following record next.
Enquiry: hey, is pIC50 for this one >= 6? Fc1ccc(-c2[nH]c(C3CCCNC3)nc2-c2ccncc2)cc1 (stereo not given)
Return: TRUE

====

Reported clearance values for a set of molecules
Assay Summary: Clpl value in rat
Assay type: ADME, organism-based
Measurement Context: plasma, read-out: Clpl
Give your result in mL/min/kg as a bare value.

Please review the following examples before continuing.
{"Smiles Entry": "C[C@H](Nc1nccc(-c2c(-c3cccc(C(F)(F)F)c3)nc(C3CCNCC3)n2C)n1)c1ccccc1", "clearance [mL/min/kg]": 38.3}
{"Smiles Entry": "Nc1nccc(-c2[nH]c(C3CCNCC3)nc2-c2cccc(C(F)(F)F)c2)n1", "clearance [mL/min/kg]": 167}

Next:
Enquiry: If you can, please state the reported clearance value of C[C@H](Nc1cc(-c2c(-c3cccc(C(F)(F)F)c3)nc(C3CCNCC3)n2C)ccn1)c1ccccc1 .
Return: 63

====

Assay Summary: Intravenous half life in rat
Type: ADME, organism-based
Measurement Context: in vivo
Measurement Kind: half-life (h)
Give your result in h as a bare value.

Enquiry: If you can, please state the reported half-life value of C[C@H](Nc1nccc(-c2c(-c3cccc(C(F)(F)F)c3)nc(C3CCNCC3)n2C)n1)c1ccccc1 .
Return: 4.9

====

Reported Cmax values for a set of molecules
Assay Summary: Oral maximum concentration in rat
Assay type: ADME, organism-based
Set-up: route oral
Measurement Context: in vivo
Give your result in nM as a bare value.

{"Smiles Entry": "C[C@H](Nc1cc(-c2c(-c3cccc(C(F)(F)F)c3)nc(C3CCNCC3)n2C)ccn1)c1ccccc1", "Observed Measurement": 390}

Enquiry: If you can, please state the reported Cmax value of C[C@H](Nc1nccc(-c2c(-c3cccc(C(F)(F)F)c3)nc(C3CCNCC3)n2C)n1)c1ccccc1 .
Return: 780
